These measurements were taken from PubChem BioAssay.

molecular target: Beta-2 adrenergic receptor (Homo sapiens); assay: agonist-induced loss of surface beta2AR – cell-based, FAP fluorogen, flow cytometry, validation set, pilot screen (AID 504459); details: Am2.2-beta2AR cells, at 10 µM;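 note: agonist-driven loss of surface beta2AR via internalization measured by FAP dye flow cytometry; reference of the scale not given here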
Calls of active or inactive are those of the source.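 Rule for the calls: active = percent response above 42, roughly 3 SD of non-fluorescent test compounds; inactive = the rest.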
// allowed return values: true = active, false = inactive

Oc1ccccc1OCCOc1ccccc1OCCOc1ccccc1O = false

INPUT: # outcome recorded in this test, key = `Cc1cccc2c(=O)n3c(nc12)CCCCC3`
OUTPUT: false

INPUT: What did this assay record as the result for `Cc1cccc2c1CC(C)(C)N/C2=C\C(N)=O` ?
OUTPUT: false

INPUT: Which outcome was entered for the molecule CS(=O)(=O)Nc1cccc(C(=O)CC2(O)C(=O)Nc3ccc(Br)cc32)c1 (centres undefined) in this test?
OUTPUT: false
